Experiment: Single-dose PK and food effect in beagle dogs (IV/PO)
Design: species or system beagle dog
Conditions: both sexes, beagle, dog, in vivo, po, 0.5 mg/kg
Experimental: Twelve beagle dogs (6-10 kg, male: female = 1:1) purchased from Beijing Marshall Biotechnology Co. Ltd. (Beijing, China) were enrolled in a three-period self-control cross-over study with a washout time of 1 week. […] In Period 1 and Period 2, dogs were fasted overnight until dosing. […] Approximately 1.0 mL of blood was collected per time point from the jugular vein using a 2 mL injector and transferred to a 3 mL tube that contained sodium heparin. […]
measured attribute: Tmax (h)
The reply should be a number in h, with the unit left off.

Ask: Returns the measured Tmax for the input compound. Input: C[C@H](Nc1ncnc(N)c1C#N)c1cc2ncc(Cl)n2nc1-c1ccccc1 [Amdizalisib]
Result: 1.92
